Measured pEC50, listed per entry.
# studySystem: human TLR7 (Homo sapiens)
# Construct: host or cells: HEK293 (HEK-Blue hTLR7)
# Sequence (Q9NYK1 27-1049): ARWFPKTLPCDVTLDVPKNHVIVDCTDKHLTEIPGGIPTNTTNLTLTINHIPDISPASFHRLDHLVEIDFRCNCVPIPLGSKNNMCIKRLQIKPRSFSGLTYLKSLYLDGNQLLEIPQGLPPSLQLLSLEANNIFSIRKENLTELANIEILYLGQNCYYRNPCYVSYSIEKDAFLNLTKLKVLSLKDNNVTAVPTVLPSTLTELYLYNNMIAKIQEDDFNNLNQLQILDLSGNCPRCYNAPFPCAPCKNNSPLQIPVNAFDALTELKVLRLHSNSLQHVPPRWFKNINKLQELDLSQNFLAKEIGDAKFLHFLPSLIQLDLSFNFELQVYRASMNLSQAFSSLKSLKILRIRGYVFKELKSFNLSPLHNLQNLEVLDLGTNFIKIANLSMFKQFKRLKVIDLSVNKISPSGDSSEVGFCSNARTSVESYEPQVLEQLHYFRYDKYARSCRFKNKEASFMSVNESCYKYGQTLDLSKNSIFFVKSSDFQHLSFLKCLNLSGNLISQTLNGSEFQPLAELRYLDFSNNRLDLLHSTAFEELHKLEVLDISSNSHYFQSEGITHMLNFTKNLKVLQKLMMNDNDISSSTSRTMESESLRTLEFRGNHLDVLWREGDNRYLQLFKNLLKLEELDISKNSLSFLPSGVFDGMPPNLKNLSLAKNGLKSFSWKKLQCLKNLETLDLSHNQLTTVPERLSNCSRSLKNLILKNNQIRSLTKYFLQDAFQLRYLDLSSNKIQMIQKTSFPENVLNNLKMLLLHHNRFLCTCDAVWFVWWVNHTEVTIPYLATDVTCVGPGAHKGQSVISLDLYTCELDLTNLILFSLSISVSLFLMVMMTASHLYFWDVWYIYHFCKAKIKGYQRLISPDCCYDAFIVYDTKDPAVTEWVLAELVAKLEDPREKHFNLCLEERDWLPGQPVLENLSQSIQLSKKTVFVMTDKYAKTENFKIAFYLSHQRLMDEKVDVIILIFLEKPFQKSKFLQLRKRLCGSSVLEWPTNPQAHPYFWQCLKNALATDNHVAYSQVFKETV
# assayProtocol: HEK-Blue hTLR7 reporter cell assay (SEAP, NF-kB/AP-1) for stimulation of human TLR7
# Type: cell-based
# statedConditions: HEK-Blue hTLR7 cells, 24 h incubation, SEAP readout; read-out: TLR7_EC50
pEC50: −log10 of the molar value.
property: pEC50

{"columns": ["smilesStr", "endpointResult"],
 "data": [
  ["CCCCc1nc2c(N)nnc(N(C)Cc3ccc(CN(C)CCOC)cc3)c2n1C", 6.38],
  ["CCCCc1nc2c(N)nnc(OC(C)C)c2n1Cc1ccc(C#N)cn1", 5.68],
  ["CCCCc1nc2c(N)nnc(C3=CCCCC3)c2n1Cc1ccc(OC)cc1", 5.54],
  ["CCCCC(=O)NCc1ccc(Cn2c(CCCC)nc3c(N)nnc(OC(C)C)c32)cc1", 6.79],
  ["CCCCc1nc2c(N)nnc(OC(C)C)c2n1Cc1ccc(C=O)cc1", 6.94],
  ["CCCCc1nc2c(N)nnc(N3CCCC3)c2n1Cc1ccc(OC)cc1", 6.92]
]}
